measured-target: PRMT5/MEP50 (Homo sapiens)
Construct: Expressed full-length human Flag-PRMT5/6His-MeP50 protein complex was purified; made in house; host or cells: Spodoptera frugiperda (SF9) insect cells, baculovirus (pDEST8)
Sequence (O14744 with tags, fused parts or gaps): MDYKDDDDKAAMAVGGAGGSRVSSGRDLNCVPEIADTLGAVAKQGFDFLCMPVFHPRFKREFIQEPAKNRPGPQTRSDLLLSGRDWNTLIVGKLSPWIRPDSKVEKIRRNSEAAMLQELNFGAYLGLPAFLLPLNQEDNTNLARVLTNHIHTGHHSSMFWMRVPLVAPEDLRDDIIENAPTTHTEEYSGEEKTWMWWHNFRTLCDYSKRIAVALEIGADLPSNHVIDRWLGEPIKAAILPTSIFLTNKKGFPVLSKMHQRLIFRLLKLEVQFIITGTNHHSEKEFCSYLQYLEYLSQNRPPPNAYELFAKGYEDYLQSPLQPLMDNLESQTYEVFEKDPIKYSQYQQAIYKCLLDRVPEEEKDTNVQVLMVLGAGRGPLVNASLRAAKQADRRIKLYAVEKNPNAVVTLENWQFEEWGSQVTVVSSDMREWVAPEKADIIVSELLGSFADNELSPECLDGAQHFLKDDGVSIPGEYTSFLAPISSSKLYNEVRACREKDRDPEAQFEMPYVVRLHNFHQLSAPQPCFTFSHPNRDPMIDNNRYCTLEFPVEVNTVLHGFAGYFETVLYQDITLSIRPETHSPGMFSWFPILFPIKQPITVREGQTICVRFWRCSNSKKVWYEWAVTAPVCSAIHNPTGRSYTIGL
Sequence (Q9BQA1 with tags, fused parts or gaps partner limits assumed): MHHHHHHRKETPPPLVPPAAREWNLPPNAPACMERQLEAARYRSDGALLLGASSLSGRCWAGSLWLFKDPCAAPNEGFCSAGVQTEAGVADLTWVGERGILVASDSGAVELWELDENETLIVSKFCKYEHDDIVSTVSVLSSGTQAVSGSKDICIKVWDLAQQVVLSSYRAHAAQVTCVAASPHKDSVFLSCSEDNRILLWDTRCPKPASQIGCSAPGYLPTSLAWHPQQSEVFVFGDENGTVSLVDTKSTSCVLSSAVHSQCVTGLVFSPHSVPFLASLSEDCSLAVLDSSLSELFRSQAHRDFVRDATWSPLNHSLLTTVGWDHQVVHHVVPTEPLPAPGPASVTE
assay-name: PRMT5 Biochemical Assay (PRMT5/MEP50 enzyme assay on peptide substrate, 3H-SAM Flashplate)
applied-conditions: Table A-2; PRMT5/MEP50 4 nM, 3H-SAM 75 nM, peptide 40 nM; read-out: Biochemical IC50
Excerpt: S-adenosylmethionine (SAM), S-adenosylhomocysteine (SAH), bicine, KCl, Tween20, dimethylsulfoxide (DMSO), bovine skin gelatin (BSG), and Tris(2-carboxyethyl)phosphine hydrochloride solution (TCEP) were purchased from Sigma-Aldrich at the highest level of purity possible. ^3H-SAM was purchase from American Radiolabeled Chemicals with a specific activity of 80 Ci/mmol 384-well streptavidin Flashplates were purchased from PerkinElmer. […]
pIC50: −log10 of the molar value.
# pIC50 annotations
parameter-measured: pIC50

> print(dat)
                                    compound             measured.target  parameter.measured        result
 1  O=C(CC1CCCCC1)NC[C@H](O)CN1CCc2ccccc2C1 [Compound A56]  PRMT5/MEP50 (Homo sapiens)               pIC50  5.00 to 6.00
 2  O=C(Cc1cccc2cccnc12)NCC(O)CN1CCc2ccccc2C1 (centres unmarked) [Compound A60]  PRMT5/MEP50 (Homo sapiens)               pIC50  6.00 to 7.00
 3  CN1CCc2cccc(OCC(=O)NCC(O)CN3CCc4ccccc4C3)c2C1 (centres unmarked) [Compound A120]  PRMT5/MEP50 (Homo sapiens)               pIC50  6.00 to 7.00
 4  COc1cccc(OCC(=O)NCC(O)CN2CCc3ccccc3C2)c1 (centres unmarked) [Compound A20]  PRMT5/MEP50 (Homo sapiens)               pIC50        > 7.00
 5  Cn1cnc2ccc(NCC(=O)NCC(O)CN3CCc4ccccc4C3)cc21 (centres unmarked) [Compound A69]  PRMT5/MEP50 (Homo sapiens)               pIC50  6.00 to 7.00
 6  O=C(COc1c(CN2CCOCC2)ccc2cccnc12)NC[C@H](O)CN1CCc2ccccc2C1 [Compound A94]  PRMT5/MEP50 (Homo sapiens)               pIC50        > 7.00
 7  CN1CCC(n2cnc3ccc(OCC(=O)NCC(O)CN4CCc5ccccc5C4)cc32)CC1 (centres unmarked) [Compound A71]  PRMT5/MEP50 (Homo sapiens)               pIC50        > 7.00
 8  CN1CCC(c2ccccc2OCC(=O)NCC(O)CN2CCc3ccccc3C2)CC1 (centres unmarked) [Compound A134]  PRMT5/MEP50 (Homo sapiens)               pIC50  6.00 to 7.00
 9  CC(=O)Nc1cccc(OCC(=O)NCC(O)CN2CCc3ccccc3C2)c1 (centres unmarked) [Compound A31]  PRMT5/MEP50 (Homo sapiens)               pIC50  5.00 to 6.00
10  N#Cc1cccc(OCC(=O)NCC(O)CN2CCc3ccccc3C2)c1 (centres unmarked) [Compound A8]  PRMT5/MEP50 (Homo sapiens)               pIC50  6.00 to 7.00
11  COc1ccccc1OCC(=O)NCC(O)CN1CCc2ccccc2C1 (centres unmarked) [Compound A22]  PRMT5/MEP50 (Homo sapiens)               pIC50        > 7.00
